# experimental protocol: In vitro metabolic stability with rat liver microsomes
# settings: rat, microsomes, pH 7.4
measured quantity: half-life at 1 µM

Sample `CCCCCCCCOc1ccc(NN=C(C#N)C#N)cc1` ; half-life at 1 µM observed: ~30 min

---

# experimental protocol: NMY1009 plasma and tissue concentrations over time by LC/MS
# Assay type: in vivo
# settings: mouse, adipose tissue, ip; mice, 5 mg/kg i.p.; read-out: half-life of adipose tissue drug concentrations (converted)
measured quantity: half-life

Record CCCCCCCCOc1ccc(NN=C(C#N)C#N)cc1 [NMY1009] . Reported half-life: ~3 h

---

# experimental protocol: NMY1009 plasma and tissue concentrations over time by LC/MS
# Assay type: in vivo
# settings: mouse, plasma, ip; mice, 5 mg/kg i.p.; read-out: time of peak plasma concentration (converted)
measured quantity: Tmax (min)
Kindly provide the numeric value in min only, without the unit symbol.

Documented Tmax of `CCCCCCCCOc1ccc(NN=C(C#N)C#N)cc1` : 30
